Where these numbers come from: the NIST ThermoML archive (doi:10.1016/j.jct.2011.11.025)

# runDescription: activity coefficient (dimensionless); of the first substance listed, at infinite dilution; xn = mol fraction of the nth substance listed
# measurementSetup: 328.15 K; Liquid; Chromatography; x1 = 0
Quick rule: activity coefficient of at least 1 means TRUE, below that means FALSE.

compound: CC(C)O [propan-2-ol] + CCCCCCn1cc[n+](C)c1.N#C[B-](C#N)(C#N)C#N
classAssignment: TRUE

Query block: Form field: activity coefficient at least 1? Entry: CC(C)(C)O [2-methylpropan-2-ol] + CCCCCCn1cc[n+](C)c1.N#C[B-](C#N)(C#N)C#N
Result block: TRUE

Query block: Form field: activity coefficient at least 1? Entry: C1COCCO1 [1,4-dioxane] + CCCCCCn1cc[n+](C)c1.N#C[B-](C#N)(C#N)C#N
Result block: FALSE

Query block: Form field: activity coefficient at least 1? Entry: CCCCCCCCC [nonane] + CCCCCCn1cc[n+](C)c1.N#C[B-](C#N)(C#N)C#N
Result block: TRUE

Query block: Form field: activity coefficient at least 1? Entry: CCOC(C)=O [ethyl acetate] + CCCCCCn1cc[n+](C)c1.N#C[B-](C#N)(C#N)C#N
Result block: FALSE

Query block: Form field: activity coefficient at least 1? Entry: C#CCCCCCC [1-octyne] + CCCCCCn1cc[n+](C)c1.N#C[B-](C#N)(C#N)C#N
Result block: TRUE

Query block: Form field: activity coefficient at least 1? Entry: CCC[N+](=O)[O-] [1-nitropropane] + CCCCCCn1cc[n+](C)c1.N#C[B-](C#N)(C#N)C#N
Result block: FALSE

Query block: Form field: activity coefficient at least 1? Entry: Cc1ccc(C)cc1 [1,4-dimethylbenzene] + CCCCCCn1cc[n+](C)c1.N#C[B-](C#N)(C#N)C#N
Result block: TRUE

Query block: Form field: activity coefficient at least 1? Entry: C=CCCCC [hex-1-ene] + CCCCCCn1cc[n+](C)c1.N#C[B-](C#N)(C#N)C#N
Result block: TRUE

Query block: Form field: activity coefficient at least 1? Entry: CC(C)CO [2-methyl-1-propanol] + CCCCCCn1cc[n+](C)c1.N#C[B-](C#N)(C#N)C#N
Result block: TRUE

Query block: Form field: activity coefficient at least 1? Entry: CC(C)CC(C)(C)C [2,2,4-trimethylpentane] + CCCCCCn1cc[n+](C)c1.N#C[B-](C#N)(C#N)C#N
Result block: TRUE

Query block: Form field: activity coefficient at least 1? Entry: O [water] + CCCCCCn1cc[n+](C)c1.N#C[B-](C#N)(C#N)C#N
Result block: TRUE

Query block: Form field: activity coefficient at least 1? Entry: CCCCC [pentane] + CCCCCCn1cc[n+](C)c1.N#C[B-](C#N)(C#N)C#N
Result block: TRUE

Query block: Form field: activity coefficient at least 1? Entry: CCCCCCCCCC [decane] + CCCCCCn1cc[n+](C)c1.N#C[B-](C#N)(C#N)C#N
Result block: TRUE

Query block: Form field: activity coefficient at least 1? Entry: CCCO [propan-1-ol] + CCCCCCn1cc[n+](C)c1.N#C[B-](C#N)(C#N)C#N
Result block: TRUE

Query block: Form field: activity coefficient at least 1? Entry: c1ccccc1 [benzene] + CCCCCCn1cc[n+](C)c1.N#C[B-](C#N)(C#N)C#N
Result block: FALSE

Query block: Form field: activity coefficient at least 1? Entry: C1CCOC1 [tetrahydrofuran] + CCCCCCn1cc[n+](C)c1.N#C[B-](C#N)(C#N)C#N
Result block: FALSE
